The values you see were collected from patent US20170369590A1.

Biological target: T1, HER2ECDHis (human, UniProt P04626 23-653, biotinylated in the cross-block ELISA (sites not given))
T1 construct: range 1-653; expressed in HEK-293F; also called soluble HER2; biotinylated HER2ECDHis
Assay: ELISA; competitor 127
readout: % binding vs no competitor (%)
Numbers only, in %.

# binder, readout, dataValue
records = [
    ("HuMab 098 (antibody, V domains shown, also called TH1014-098; PC1014-098) VH: EVQLLESGGGLVQPGGSLRLSCAASGFTFSNYGMSWVRQAPGKGLEWVSAISGSAYSTYYADSVKGRFTISRDNSKNTLWLQMNSLRAEDTAVYYCAKAHYHGSGSYYTLFDYWGQGTLVTVSS VL: DIQMTQSPSSLSASVGDRVTITCRASQGISSWLAWYQQKPEKAPKSLIYAASSLQSGVPSRFSGSGSGTDFTLTISSLQPEDFATYYCQQYNSYPYTFGQGTKLEIK", "% binding vs no competitor", 21),
    ("HuMab 132 (antibody, V domains shown) VH: QVQLVQSGAEVKKPGASVKVSCKASGYTFTSYGISWVRQAPGQGLEWMGWISAYNGNSNYVQKFQGRVTMTTDTTTSTAYMELRSLTSDDTAVYYCAREYSYDSGTYFYYGMDVWGQGTTVTVSS VL: EIVLTQSPATLSLSPGERATLSCRASQSVSSYLAWYQQKPGQAPRLLIYDASNRATGIPARFSGSGSGTDFTLTISSLEPEDFAVYYCQQRSNWPMYTFGQGTKLEIK", "% binding vs no competitor", 30),
]

Then this binder:
Value lookup for % binding vs no competitor; key = HuMab 127 (antibody, V domains shown) VH: EVQLVQSGAEVKKPGESLTISCKGSGYSFSIYWIGWVRQMPGKGLEWMGIIFPGDSDIRYSPSFQGQVTISADKSISTAYLQWSSLKASDTAMYYCARQPGDWSPRHWYFDLWGRGTLVTVSS VL: VIWMTQSPSLLSASTGDRVTISCRMSQGISSYLAWYQQKPGKAPELLIYAASTLQSGVPSRFSGSGSGTDFTLTISYLQSEDFATYYCQQYYSFPLTFGGGTKVEIK
11
